System: Primary T cells
Assay: Cytotoxicity, viability by flow cytometry
Format: cell-based

- molecule: "CCOc1cc(F)ccc1-c1cc(Nc2cc(F)c(OC)c(C(N)=O)c2)ncn1 [Example 139]"
  measurement units: "µM"
  relation: ">"
  TD50: 20
- molecule: "COc1ccccc1-c1cc(Nc2ccc(OC)c([N+](=O)[O-])c2)ncn1 [Example 11]"
  measurement units: "µM"
  relation: ">"
  TD50: 1.5
- molecule: "COc1ccc(Nc2cc(-c3cc(F)ccc3OC)ncn2)cc1N [Example 75]"
  measurement units: "µM"
  relation: "="
  TD50: 10
- molecule: "CCOC(=O)c1cc(Nc2cc(-c3ccccc3OC)ncn2)ccc1Cl [Example 14]"
  measurement units: "µM"
  relation: ">"
  TD50: 0.5
- molecule: "COc1ccccc1-c1cc(Nc2ccc(F)c(Cn3cnc4ccccc43)c2)ncn1 [Example 40]"
  measurement units: "µM"
  relation: "="
  TD50: 0.4

* * *

Target: human CDK9/CyclinT kinase complex (Homo sapiens (Human))
Sequence (P50750 whole entry): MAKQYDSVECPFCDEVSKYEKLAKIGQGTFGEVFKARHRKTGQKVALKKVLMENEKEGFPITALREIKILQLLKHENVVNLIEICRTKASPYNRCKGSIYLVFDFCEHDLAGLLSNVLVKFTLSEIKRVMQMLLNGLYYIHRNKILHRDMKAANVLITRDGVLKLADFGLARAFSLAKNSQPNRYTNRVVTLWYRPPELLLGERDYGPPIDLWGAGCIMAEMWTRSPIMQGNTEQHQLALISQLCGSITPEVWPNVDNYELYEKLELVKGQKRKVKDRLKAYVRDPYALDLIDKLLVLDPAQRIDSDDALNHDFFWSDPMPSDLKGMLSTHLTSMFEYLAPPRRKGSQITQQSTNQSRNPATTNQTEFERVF
Sequence (O60563 whole entry partner): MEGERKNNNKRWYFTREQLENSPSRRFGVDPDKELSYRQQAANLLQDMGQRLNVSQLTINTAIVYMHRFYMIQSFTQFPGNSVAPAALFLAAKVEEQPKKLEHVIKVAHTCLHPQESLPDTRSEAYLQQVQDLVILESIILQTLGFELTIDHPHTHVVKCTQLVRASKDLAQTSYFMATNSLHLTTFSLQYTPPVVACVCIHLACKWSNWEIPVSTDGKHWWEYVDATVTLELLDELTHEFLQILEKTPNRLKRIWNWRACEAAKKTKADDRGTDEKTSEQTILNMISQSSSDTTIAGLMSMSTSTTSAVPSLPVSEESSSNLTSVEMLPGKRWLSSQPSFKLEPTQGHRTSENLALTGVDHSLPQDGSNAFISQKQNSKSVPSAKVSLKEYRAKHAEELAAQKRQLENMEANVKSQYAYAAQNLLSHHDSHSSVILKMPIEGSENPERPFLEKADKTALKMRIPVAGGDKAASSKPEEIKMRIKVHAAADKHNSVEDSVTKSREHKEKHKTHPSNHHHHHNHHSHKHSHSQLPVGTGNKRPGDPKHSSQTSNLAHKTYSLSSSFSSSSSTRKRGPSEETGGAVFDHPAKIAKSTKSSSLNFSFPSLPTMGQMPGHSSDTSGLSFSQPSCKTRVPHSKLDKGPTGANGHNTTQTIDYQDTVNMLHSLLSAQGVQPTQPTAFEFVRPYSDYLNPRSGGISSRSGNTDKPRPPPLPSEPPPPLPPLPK
Assay: In Vitro CDK9/CyclinT Assay (IMAP fluorescent polarization)
Type: biochemical
Details: Table 1
pIC50: −log10 of the molar value.

- chemical structure: "COc1ccccc1-c1cc(Nc2ccc(N(C)C)cc2)ncn1"
  pIC50: "> 6.00"
- chemical structure: "CCOc1cc(F)ccc1-c1cc(Nc2cc(F)c(OC)c(C(N)=O)c2)ncn1"
  pIC50: "> 5.00"
- chemical structure: "COc1ccccc1-c1cc(Nc2ccc(Oc3ccccc3)c(N)c2)ncn1"
  pIC50: "> 5.00"
- chemical structure: "COc1ccccc1-c1cc(Nc2ccc(C(N)=O)c(Cl)c2)ncn1"
  pIC50: "> 6.00"
- chemical structure: "COc1ccccc1-c1cc(Nc2ccc(F)c(Cn3cnc4ccccc43)c2)ncn1"
  pIC50: "> 7.00"
- chemical structure: "COc1ccccc1-c1cc(Nc2ccc(N3CCN(C)CC3)c(S(N)(=O)=O)c2)ncn1"
  pIC50: "> 7.00"
- chemical structure: "COc1ccccc1-c1cc(Nc2ccc([N+](=O)[O-])c(OC)c2)ncn1"
  pIC50: "> 5.00"
- chemical structure: "COc1cc(F)ccc1-c1cc(Nc2ccc(OC)c([N+](=O)[O-])c2)ncn1"
  pIC50: "> 6.00"
- chemical structure: "COC(=O)c1cc(Nc2cc(-c3ccccc3OC)ncn2)ccc1OC"
  pIC50: "> 7.00"
- chemical structure: "COc1cc(Nc2cc(-c3ccccc3OC)ncn2)ccc1NS(C)(=O)=O"
  pIC50: "> 6.00"
- chemical structure: "COc1ccc(Nc2cc(-c3ccccc3OC)ncn2)cc1OCCN1CCOCC1"
  pIC50: "> 6.00"
- chemical structure: "COc1ccc(Nc2cc(-c3ccccc3OC)ncn2)cc1CNS(C)(=O)=O"
  pIC50: "> 7.00"
- chemical structure: "COc1ccc(Nc2cc(-c3ccccc3OC)ncn2)cc1C=O"
  pIC50: "> 6.00"
- chemical structure: "COc1ccc(Nc2cc(-c3ccccc3OC)ncn2)cc1Nc1nc2ccccc2[nH]1"
  pIC50: "> 5.00"
- chemical structure: "COc1cc(Nc2cc(-c3ccccc3OC)ncn2)ccc1N"
  pIC50: "> 6.00"
- chemical structure: "COC(=O)c1ccc(Nc2cc(-c3ccccc3OC)ncn2)cc1OC"
  pIC50: "> 6.00"
- chemical structure: "CCOc1ccc(Nc2cc(-c3ccccc3OC)ncn2)cc1O"
  pIC50: "> 6.00"
- chemical structure: "COC(=O)Nc1cc(Nc2cc(-c3ccc(F)cc3OC)ncn2)ccc1OC"
  pIC50: "> 6.00"
- chemical structure: "COc1ccc(Nc2cc(-c3ccccc3O)ncn2)cc1N"
  pIC50: "< 5.00"
